System: Escherichia coli TOP10
Experiment: shrunken log2 fold change of peptide-encoding DNA abundance (4.5 h post-induction vs induction); higher = less antimicrobial activity (less host growth inhibition)
Details: time post-induction: 4.5 h; library: site-saturation at positions 5, 18, 19, 20
property.measured: shrunken log2 fold change

Below, 6 sequences whose answers are already recorded.
- macromolecule.sequence: "RRIRSRPPRLPRPRPRPCGRPRP"
  shrunken log2 fold change: -0.485
- macromolecule.sequence: "RRIRSRPPRLPRPRPRPCSKPRP"
  shrunken log2 fold change: -0.234
- macromolecule.sequence: "RRIRMRPPRLPRPRPRPRMRPRP"
  shrunken log2 fold change: 1.41
- macromolecule.sequence: "RRIRWRPPRLPRPRPRPVFYPRP"
  shrunken log2 fold change: -0.193
- macromolecule.sequence: "RRIRNRPPRLPRPRPRPDLWPRP"
  shrunken log2 fold change: 0.551
- macromolecule.sequence: "RRIRIRPPRLPRPRPRPWQSPRP"
  shrunken log2 fold change: -0.0531

Can you give me shrunken log2 fold change for all of these, one by one?
1. RRIRSRPPRLPRPRPRPMLSPRP
2. RRIRFRPPRLPRPRPRPFQVPRP

1: 0.149; 2: -0.309

====

Test system: Escherichia coli TOP10
Experiment: shrunken log2 fold change of peptide-encoding DNA abundance (4.5 h post-induction vs induction); higher = less antimicrobial activity (less host growth inhibition)
Details: time post-induction: 4.5 h; library: site-saturation at positions 5, 18, 19, 20
property.measured: shrunken log2 fold change
Answers are plain numbers.

- macromolecule.sequence: "RRIRERPPRLPRPRPRPQDDPRP"
  subject.of.test: "Escherichia coli TOP10"
  reading: 0.121
- macromolecule.sequence: "RRIRRRPPRLPRPRPRPQKTPRP"
  subject.of.test: "Escherichia coli TOP10"
  reading: -0.019
- macromolecule.sequence: "RRIRKRPPRLPRPRPRPQNRPRP"
  subject.of.test: "Escherichia coli TOP10"
  reading: -0.169
- macromolecule.sequence: "RRIRVRPPRLPRPRPRPGSRPRP"
  subject.of.test: "Escherichia coli TOP10"
  reading: 0.177
- macromolecule.sequence: "RRIRKRPPRLPRPRPRPMPMPRP"
  subject.of.test: "Escherichia coli TOP10"
  reading: 0.00883
- macromolecule.sequence: "RRIRFRPPRLPRPRPRPNYSPRP"
  subject.of.test: "Escherichia coli TOP10"
  reading: -0.8
- macromolecule.sequence: "RRIRQRPPRLPRPRPRPKQLPRP"
  subject.of.test: "Escherichia coli TOP10"
  reading: -0.156

// moving on: another record for shrunken log2 fold change
So what shrunken log2 fold change did RRIRNRPPRLPRPRPRPLVTPRP get with Escherichia coli TOP10?
0.0322

====

Tested on: Escherichia coli TOP10
Experiment: shrunken log2 fold change of peptide-encoding DNA abundance (4.5 h post-induction vs induction); higher = less antimicrobial activity (less host growth inhibition)
Conditions: time post-induction: 4.5 h; library: site-saturation at positions 5, 18, 19, 20
Hi, to clarify the labels: true (1) covers shrunken log2 fold change from -0.1 upward, false (0) covers anything below -0.1.

- macromolecule.sequence: "RRIRPRPPRLPRPRPRPNRQPRP"
  class.label: "true (1)"
- macromolecule.sequence: "RRIRLRPPRLPRPRPRPKSCPRP"
  class.label: "true (1)"
- macromolecule.sequence: "RRIRDRPPRLPRPRPRPSPDPRP"
  class.label: "true (1)"

# check: shrunken log2 fold change of RRIRYRPPRLPRPRPRPDFFPRP is greater than or equal to -0.1
true (1)

What about RRIRSRPPRLPRPRPRPVQRPRP ?
true (1)

====

Test system: Escherichia coli TOP10
Test: shrunken log2 fold change of peptide-encoding DNA abundance (4.5 h post-induction vs induction); higher = less antimicrobial activity (less host growth inhibition)
Details: time post-induction: 4.5 h; library: site-saturation at positions 5, 18, 19, 20
Assign shrunken log2 fold change to each entry below.
One number for each entry.

- macromolecule.sequence: "RRIRLRPPRLPRPRPRPPIRPRP"
  subject.of.test: "Escherichia coli TOP10"
  reading: 0.296

Can you give me shrunken log2 fold change for all of these, one by one?
1. RRIRGRPPRLPRPRPRPHMMPRP
2. RRIRYRPPRLPRPRPRPEMSPRP
3. RRIRYRPPRLPRPRPRPCAGPRP
4. RRIRLRPPRLPRPRPRPSHQPRP

-0.0708
-0.343
-0.0602
-0.231

====

Test system: Escherichia coli TOP10
Test: shrunken log2 fold change of peptide-encoding DNA abundance (4.5 h post-induction vs induction); higher = less antimicrobial activity (less host growth inhibition)
Conditions: time post-induction: 4.5 h; library: site-saturation at positions 5, 18, 19, 20
Hi, to clarify the labels: yes covers shrunken log2 fold change from -0.06 upward, no covers anything below -0.06.

These recorded examples may help you get a feel for the data.
- macromolecule.sequence: "RRIRVRPPRLPRPRPRPDANPRP"
  class.label: "yes"
- macromolecule.sequence: "RRIRTRPPRLPRPRPRPLVHPRP"
  class.label: "no"

# check: shrunken log2 fold change of RRIRDRPPRLPRPRPRPMIYPRP is greater than or equal to -0.06
yes

What about RRIRSRPPRLPRPRPRPSFDPRP ?
no

What about RRIRPRPPRLPRPRPRPYCFPRP ?
no

What about RRIRTRPPRLPRPRPRPPQWPRP ?
yes

====

Tested on: Escherichia coli TOP10
Test: shrunken log2 fold change of peptide-encoding DNA abundance (4.5 h post-induction vs induction); higher = less antimicrobial activity (less host growth inhibition)
Conditions: time post-induction: 4.5 h; library: site-saturation at positions 5, 18, 19, 20
Assign shrunken log2 fold change to each entry below.
One number for each entry.

Below, 5 sequences whose answers are already recorded.
- macromolecule.sequence: "RRIRQRPPRLPRPRPRPPVGPRP"
  shrunken log2 fold change: 0.119
- macromolecule.sequence: "RRIRFRPPRLPRPRPRPKKTPRP"
  shrunken log2 fold change: 0.0466
- macromolecule.sequence: "RRIRSRPPRLPRPRPRPYGKPRP"
  shrunken log2 fold change: -0.0603
- macromolecule.sequence: "RRIRARPPRLPRPRPRPCMHPRP"
  shrunken log2 fold change: -0.226
- macromolecule.sequence: "RRIRDRPPRLPRPRPRPHNVPRP"
  shrunken log2 fold change: 0.00884

Can you give me shrunken log2 fold change for all of these, one by one?
1. RRIRPRPPRLPRPRPRPCNAPRP
2. RRIRFRPPRLPRPRPRPLDSPRP
3. RRIRIRPPRLPRPRPRPMQKPRP

[-0.179, -0.0455, 0.0387]

Can you give me shrunken log2 fold change for all of these, one by one?
1. RRIRTRPPRLPRPRPRPDSYPRP
2. RRIRRRPPRLPRPRPRPYRGPRP
3. RRIRTRPPRLPRPRPRPSKMPRP
4. RRIRHRPPRLPRPRPRPTRLPRP

1: -0.0896; 2: -0.191; 3: -0.793; 4: 0.189

Can you give me shrunken log2 fold change for all of these, one by one?
1. RRIRGRPPRLPRPRPRPYATPRP
2. RRIRHRPPRLPRPRPRPHKGPRP
3. RRIRMRPPRLPRPRPRPMAKPRP

1. 1.81
2. -0.277
3. 0.245

====

Tested on: Escherichia coli TOP10
Experiment: shrunken log2 fold change of peptide-encoding DNA abundance (4.5 h post-induction vs induction); higher = less antimicrobial activity (less host growth inhibition)
Conditions: time post-induction: 4.5 h; library: site-saturation at positions 5, 18, 19, 20
Assign shrunken log2 fold change to each entry below.
Give bare numbers.

Below, 5 sequences whose answers are already recorded.
- macromolecule.sequence: "RRIRFRPPRLPRPRPRPDWGPRP"
  shrunken log2 fold change: 0.00855
- macromolecule.sequence: "RRIRPRPPRLPRPRPRPRGAPRP"
  shrunken log2 fold change: 0.495
- macromolecule.sequence: "RRIRNRPPRLPRPRPRPAMTPRP"
  shrunken log2 fold change: 0.157
- macromolecule.sequence: "RRIRARPPRLPRPRPRPTTVPRP"
  shrunken log2 fold change: 0.45
- macromolecule.sequence: "RRIRSRPPRLPRPRPRPTNMPRP"
  shrunken log2 fold change: -0.465

Can you give me shrunken log2 fold change for all of these, one by one?
1. RRIRLRPPRLPRPRPRPLPCPRP
2. RRIRIRPPRLPRPRPRPGFMPRP

1: 0.142; 2: -0.487

====

System: Escherichia coli TOP10;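 also: peptides expressed intracellularly from a pBAD plasmid library in pooled LB shake-flask culture, induced with 0.3% L-arabinose, DNA abundance read by NGS, three biological replicates, DESeq2 with apeglm shrinkage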
Experiment: shrunken log2 fold change of peptide-encoding DNA abundance (4.5 h post-induction vs induction); higher = less antimicrobial activity (less host growth inhibition)
Conditions: time post-induction: 4.5 h; library: site-saturation at positions 5, 18, 19, 20
Heads up, the class ranges for shrunken log2 fold change are low value: < -0.1; medium value: ≥ -0.1 and < 0.09; high value: ≥ 0.09

These recorded examples may help you get a feel for the data.
- macromolecule.sequence: "RRIRKRPPRLPRPRPRPGAIPRP"
  class.label: "high value"
- macromolecule.sequence: "RRIRTRPPRLPRPRPRPLEDPRP"
  class.label: "low value"
- macromolecule.sequence: "RRIRVRPPRLPRPRPRPCTIPRP"
  class.label: "medium value"
- macromolecule.sequence: "RRIRIRPPRLPRPRPRPFEPPRP"
  class.label: "low value"
- macromolecule.sequence: "RRIRKRPPRLPRPRPRPYIFPRP"
  class.label: "low value"
- macromolecule.sequence: "RRIRNRPPRLPRPRPRPHKRPRP"
  class.label: "low value"
- macromolecule.sequence: "RRIRPRPPRLPRPRPRPSVHPRP"
  class.label: "low value"
- macromolecule.sequence: "RRIRYRPPRLPRPRPRPMNMPRP"
  class.label: "low value"

Each sequence maps to one class by shrunken log2 fold change. Which class for RRIRARPPRLPRPRPRPRPEPRP ?
high value

What about RRIRKRPPRLPRPRPRPEGYPRP ?
medium value

What about RRIRKRPPRLPRPRPRPRDYPRP ?
medium value

What about RRIRVRPPRLPRPRPRPKPNPRP ?
high value

What about RRIRMRPPRLPRPRPRPILVPRP ?
high value

FYI, the data here is from the supplement of paper PMC9112550.
